Hey, just so you know, these numbers are from ChEMBL document CHEMBL1909046.

# Target under test: Cytochrome P450 3A4 (Homo sapiens, UniProt P08684); also: in other assays of this panel Not Active means under 50% inhibition at 10 µM
# Sequence (P08684 whole entry): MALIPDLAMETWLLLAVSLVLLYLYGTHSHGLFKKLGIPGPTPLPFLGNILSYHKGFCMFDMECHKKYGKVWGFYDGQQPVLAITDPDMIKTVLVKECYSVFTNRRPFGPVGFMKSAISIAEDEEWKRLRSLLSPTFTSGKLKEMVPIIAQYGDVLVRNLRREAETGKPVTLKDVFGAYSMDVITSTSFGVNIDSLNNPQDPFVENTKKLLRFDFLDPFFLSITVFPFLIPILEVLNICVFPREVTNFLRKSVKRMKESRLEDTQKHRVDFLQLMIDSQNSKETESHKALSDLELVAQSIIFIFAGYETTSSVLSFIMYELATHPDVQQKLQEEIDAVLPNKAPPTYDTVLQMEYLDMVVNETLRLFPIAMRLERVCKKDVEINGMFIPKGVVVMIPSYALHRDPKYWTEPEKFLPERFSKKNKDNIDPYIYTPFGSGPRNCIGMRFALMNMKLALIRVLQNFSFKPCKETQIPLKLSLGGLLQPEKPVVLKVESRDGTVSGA
# Condition summary: bti-tn-5b1-4

- Compound: "CC[C@H](C)C(=O)O[C@H]1C[C@H](O)C=C2C=C[C@H](C)[C@H](CC[C@@H](O)C[C@@H](O)CC(=O)O)[C@H]21 [PRAVASTATIN]"
  IC50: "Not Active"
- Compound: "Nc1ccc(S(=O)(=O)Nc2nccs2)cc1 [SULFATHIAZOLE]"
  IC50: "Not Active"
- Compound: "Nc1nc(Cl)nc2c1ncn2[C@H]1C[C@H](O)[C@@H](CO)O1 [CLADRIBINE]"
  IC50: "Not Active"
- Compound: "Cc1cccc(Nc2ccccc2C(=O)O)c1C [MEFENAMIC ACID]"
  IC50: "Not Active"
- Compound: "CNC(=C[N+](=O)[O-])NCCSCc1csc(CN(C)C)n1 [NIZATIDINE]"
  IC50: "Not Active"
- Compound: "CC(=O)O[C@]1(C(C)=O)CC[C@H]2[C@@H]3C=C(Cl)C4=CC(=O)[C@@H]5C[C@@H]5[C@]4(C)[C@H]3CC[C@@]21C [CYPROTERONE ACETATE]"
  IC50: "Not Active"
- Compound: "CCc1oc2ccccc2c1C(=O)c1cc(Br)c(O)c(Br)c1 [BENZBROMARONE]"
  IC50: "Not Active"
- Compound: "CNS(=O)(=O)Cc1ccc2[nH]cc(CCN(C)C)c2c1"
  IC50: "Not Active"
- Compound: "CC(C)(C)c1ccc(S(=O)(=O)/C=C/C#N)cc1 [BAY-11-7085]"
  IC50: "Not Active"
- Compound: "CC(=O)Nc1nnc(S(N)(=O)=O)s1 [ACETAZOLAMIDE]"
  IC50: "Not Active"
- Compound: "O=C(O)C(Cl)(Cl)Cl [TRICHLOROACETIC ACID]"
  IC50: "Not Active"
- Compound: "Cc1c(F)c(N2CCNC(C)C2)cc2c1c(=O)c(C(=O)O)cn2C1CC1 (configuration not stated) [GREPAFLOXACIN]"
  IC50: "Not Active"

* * *

# Experiment notes: DRUGMATRIX: Serotonin (5-Hydroxytryptamine) 5-HT3 radioligand binding (ligand: [3H] GR-65630)
# Format: cell membranes, Membrane
# Condition summary: hek293; Not Active = under 50% inhibition at 10 µM

- Molecule: "CC[C@]1(O)CC[C@H]2[C@@H]3CCC4=CCCC[C@@H]4[C@H]3CC[C@@]21C"
  IC50: "Not Active"
- Molecule: "Cc1c(N(C)CS(=O)(=O)[O-])c(=O)n(-c2ccccc2)n1C.[Na+] [DIPYRONE SODIUM]"
  IC50: "Not Active"
- Molecule: "COc1cc(C(=O)NS(=O)(=O)c2ccccc2C)ccc1Cc1cn(C)c2ccc(NC(=O)OC3CCCC3)cc12 [ZAFIRLUKAST]"
  IC50: "Not Active"
- Molecule: "C[C@]12C/C(=C/O)C(=O)C[C@@H]1CC[C@@H]1[C@@H]2CC[C@@]2(C)[C@H]1CC[C@]2(C)O [OXYMETHOLONE]"
  IC50: "Not Active"
- Molecule: "CC[C@H](C)C(=O)O[C@H]1C[C@H](O)C=C2C=C[C@H](C)[C@H](CC[C@@H](O)C[C@@H](O)CC(=O)O)[C@H]21 [PRAVASTATIN]"
  IC50: "Not Active"
- Molecule: "CC[C@H]1OC(=O)[C@H](C)[C@@H](O[C@H]2C[C@@](C)(OC)[C@@H](O)[C@H](C)O2)[C@H](C)[C@@H](O[C@@H]2O[C@H](C)C[C@H](N(C)C)[C@H]2O)[C@](C)(OC)C[C@@H](C)C(=O)[C@H](C)[C@@H](O)[C@]1(C)O [CLARITHROMYCIN]"
  IC50: "Not Active"
- Molecule: "CCC[C@@H]1C[C@@H](C(=O)N[C@@H]([C@H]2O[C@H](SC)[C@H](O)[C@@H](O)[C@H]2O)[C@H](C)Cl)N(C)C1 [CLINDAMYCIN]"
  IC50: "Not Active"
- Molecule: "C[C@@H]1CC[C@H]2[C@@H](C)C(=O)O[C@@H]3O[C@@]4(C)CC[C@@H]1[C@]32OO4 [ARTEMISININ]"
  IC50: "Not Active"
- Molecule: "C=C(CC)C(=O)c1ccc(OCC(=O)O)c(Cl)c1Cl [ETHACRYNIC ACID]"
  IC50: "Not Active"
- Molecule: "NC(=O)N1c2ccccc2C=Cc2ccccc21 [CARBAMAZEPINE]"
  IC50: "Not Active"
- Molecule: "CC(C)(CO)C(O)C(=O)NCCCO (centres undefined) [PANTHENOL]"
  IC50: "Not Active"
- Molecule: "Nc1nc(N)nc(NC2CC2)n1 [CYROMAZINE]"
  IC50: "Not Active"
- Molecule: "Nc1nc2c(c(=O)[nH]1)N(C=O)C(CNc1ccc(C(=O)N[C@@H](CCC(=O)O)C(=O)O)cc1)CN2 (some centres undefined) [LEUCOVORIN]"
  IC50: "Not Active"
- Molecule: "CN(CCOc1ccc(CC2SC(=O)NC2=O)cc1)c1ccccn1 (centres undefined) [ROSIGLITAZONE]"
  IC50: "Not Active"
- Molecule: "O=C(O)C(Cl)(Cl)Cl [TRICHLOROACETIC ACID]"
  IC50: "Not Active"
- Molecule: "O=C(O)Cc1ccc(-c2ccccc2)cc1 [FELBINAC]"
  IC50: "Not Active"
- Molecule: "CC(=O)O[C@]1(C(C)=O)CC[C@H]2[C@@H]3C=C(Cl)C4=CC(=O)[C@@H]5C[C@@H]5[C@]4(C)[C@H]3CC[C@@]21C [CYPROTERONE ACETATE]"
  IC50: "Not Active"
- Molecule: "CN(Cc1cnc2nc(N)nc(N)c2n1)c1ccc(C(=O)N[C@@H](CCC(=O)O)C(=O)O)cc1 [METHOTREXATE]"
  IC50: "Not Active"
- Molecule: "O=C(O)c1cccnc1 [NIACIN]"
  IC50: "Not Active"
- Molecule: "CC(C)(Oc1ccc(C2CC2(Cl)Cl)cc1)C(=O)O (centres undefined) [CIPROFIBRATE]"
  IC50: "Not Active"
- Molecule: "CC(C)(C)c1ccc(S(=O)(=O)/C=C/C#N)cc1 [BAY-11-7085]"
  IC50: "Not Active"
- Molecule: "C[C@@H](O)[C@H]1C(=O)N2C(C(=O)O)=C(S[C@@H]3CN[C@H](C(=O)N(C)C)C3)[C@H](C)[C@H]12 [MEROPENEM]"
  IC50: "Not Active"
- Molecule: "CCOC(N)=O"
  IC50: "Not Active"
- Molecule: "CNC(=C[N+](=O)[O-])NCCSCc1csc(CN(C)C)n1 [NIZATIDINE]"
  IC50: "Not Active"
- Molecule: "Oc1ccccc1O [CATECHOL]"
  IC50: "Not Active"
- Molecule: "CCCCC1C(=O)N(c2ccccc2)N(c2ccccc2)C1=O [PHENYLBUTAZONE]"
  IC50: "Not Active"
- Molecule: "CCOC(=O)n1ccn(C)c1=S [CARBIMAZOLE]"
  IC50: "Not Active"
- Molecule: "OCCN1CCN(CCCN2c3ccccc3Sc3ccc(Cl)cc32)CC1 [PERPHENAZINE]"
  IC50: "Not Active"
- Molecule: "CCS(=O)(=O)CCn1c([N+](=O)[O-])cnc1C [TINIDAZOLE]"
  IC50: "Not Active"
- Molecule: "C#C[C@]1(O)CC[C@H]2[C@@H]3CCC4=Cc5oncc5C[C@]4(C)[C@H]3CC[C@@]21C [DANAZOL]"
  IC50: "Not Active"
- Molecule: "CCCc1nn(C)c2c(=O)[nH]c(-c3cc(S(=O)(=O)N4CCN(C)CC4)ccc3OCC)nc12"
  IC50: "Not Active"
- Molecule: "Nc1ccc(S(=O)(=O)Nc2nccs2)cc1 [SULFATHIAZOLE]"
  IC50: "Not Active"
- Molecule: "CN1C(=O)CN=C(c2ccccc2)c2cc(Cl)ccc21 [DIAZEPAM]"
  IC50: "Not Active"
- Molecule: "N[C@@H](Cc1ccc(F)cc1)C(=O)O"
  IC50: "Not Active"
